Target: 5-HT2A receptor (Rattus norvegicus)
Sequence (P14842 whole entry): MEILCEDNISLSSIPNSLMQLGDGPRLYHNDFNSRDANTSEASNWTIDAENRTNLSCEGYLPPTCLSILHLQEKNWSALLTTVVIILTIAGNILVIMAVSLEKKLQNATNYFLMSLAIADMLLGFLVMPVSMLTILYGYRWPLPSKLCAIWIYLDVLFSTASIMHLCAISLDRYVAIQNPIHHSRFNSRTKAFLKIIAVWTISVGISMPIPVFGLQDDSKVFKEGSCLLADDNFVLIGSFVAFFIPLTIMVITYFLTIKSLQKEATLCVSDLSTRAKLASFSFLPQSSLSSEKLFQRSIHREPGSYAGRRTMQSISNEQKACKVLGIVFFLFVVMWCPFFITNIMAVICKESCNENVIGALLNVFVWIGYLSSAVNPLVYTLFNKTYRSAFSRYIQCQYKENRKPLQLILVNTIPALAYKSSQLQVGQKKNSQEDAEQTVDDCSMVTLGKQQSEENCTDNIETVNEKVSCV
Assay: 5-HT2A receptor radioligand binding (3H-ketanserin)
Settings: Receptor Affinity Ki ± SEM 5-HT2A, rat brain cortex, 3H-ketanserin; mean ± SEM of three experiments
# Ki per record follows
MEASURE NAME: Ki (µM)

{"COMPOUND": "O=C1CC2(CCCCC2)Oc2cc(OCCCCN3CCC(c4nsc5ccccc45)CC3)ccc21", "ASSAY VALUE": 0.0756}
{"COMPOUND": "CC1CC(=O)c2ccc(OCCCCN3CCC(c4noc5cc(F)ccc45)CC3)cc2O1 (centres unmarked) [Compound 16a]", "ASSAY VALUE": 0.0079}
{"COMPOUND": "CC1Oc2cc(OCCCCN3CCC(c4noc5cc(F)ccc45)CC3)ccc2C(=O)C1C (centres unmarked)", "ASSAY VALUE": 0.0024}
{"COMPOUND": "O=C1CC2(CCCC2)Oc2cc(OCCCN3CCC(c4noc5cc(F)ccc45)CC3)ccc21", "ASSAY VALUE": 0.0083}
{"COMPOUND": "COc1ccccc1N1CCN(CCCOc2ccc3c(c2)OC(C)(C)CC3=O)CC1", "ASSAY VALUE": 0.0331}
{"COMPOUND": "Cc1cccc(N2CCN(CCCCOc3ccc4c(c3)OC3(CCCCC3)CC4=O)CC2)c1C", "ASSAY VALUE": 0.0675}
{"COMPOUND": "CC1(C)CC(=O)c2ccc(OCCCCN3CCN(c4ccccc4)CC3)cc2O1", "ASSAY VALUE": 0.0898}
{"COMPOUND": "CC1(C)CC(=O)c2ccc(OCCCCN3CCN(c4ncccn4)CC3)cc2O1", "ASSAY VALUE": 1.14}

---

Target: UniProt:P35462
Sequence (P35462 whole entry): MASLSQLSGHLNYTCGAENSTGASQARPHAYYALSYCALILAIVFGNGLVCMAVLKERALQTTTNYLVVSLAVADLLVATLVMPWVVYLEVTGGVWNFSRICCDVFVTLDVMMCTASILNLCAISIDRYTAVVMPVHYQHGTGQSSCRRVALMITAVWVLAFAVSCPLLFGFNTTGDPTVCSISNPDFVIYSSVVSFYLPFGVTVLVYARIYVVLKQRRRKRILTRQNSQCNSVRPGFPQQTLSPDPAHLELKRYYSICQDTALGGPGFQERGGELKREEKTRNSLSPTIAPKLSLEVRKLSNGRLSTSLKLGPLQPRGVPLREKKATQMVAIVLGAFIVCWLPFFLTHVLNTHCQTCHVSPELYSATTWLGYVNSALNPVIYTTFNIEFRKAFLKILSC
Assay: Intrinsic activity, FLIPR calcium assay, HEK293/ACTOne D3
pIC50: −log10 of the molar value.
MEASURE NAME: pIC50

{"COMPOUND": "CC1(C)CC(=O)c2ccc(OCCCCN3CCC(c4noc5cc(F)ccc45)CC3)cc2O1 [Compound 6j]", "ASSAY VALUE": 7.50}

---

Molecular target: D2L receptor (Homo sapiens)
Construct: expressed in transfected cells; host or cells: HEK293
Sequence (P14416 whole entry): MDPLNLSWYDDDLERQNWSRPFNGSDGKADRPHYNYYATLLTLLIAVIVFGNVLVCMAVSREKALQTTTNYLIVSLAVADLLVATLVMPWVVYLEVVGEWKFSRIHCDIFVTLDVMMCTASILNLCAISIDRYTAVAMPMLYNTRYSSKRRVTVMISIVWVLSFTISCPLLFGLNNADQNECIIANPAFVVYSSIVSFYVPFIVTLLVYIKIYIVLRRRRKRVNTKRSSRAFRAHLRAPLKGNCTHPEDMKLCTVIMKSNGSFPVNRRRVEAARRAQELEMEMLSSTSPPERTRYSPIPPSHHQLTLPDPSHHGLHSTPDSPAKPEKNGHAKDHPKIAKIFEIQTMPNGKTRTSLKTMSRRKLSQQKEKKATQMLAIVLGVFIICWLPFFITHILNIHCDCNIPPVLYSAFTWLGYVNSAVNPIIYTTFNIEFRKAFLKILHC
Assay: Intrinsic activity, FLIPR calcium assay, HEK293/D2L
Format: cell-based
pIC50: −log10 of the molar value.

{"COMPOUND": "CC1(C)CC(=O)c2ccc(OCCCCN3CCC(c4noc5cc(F)ccc45)CC3)cc2O1 [Compound 6j]", "pIC50": 8.05}

---

Biological target: D2 receptor (Rattus norvegicus)
Sequence (P61169 whole entry): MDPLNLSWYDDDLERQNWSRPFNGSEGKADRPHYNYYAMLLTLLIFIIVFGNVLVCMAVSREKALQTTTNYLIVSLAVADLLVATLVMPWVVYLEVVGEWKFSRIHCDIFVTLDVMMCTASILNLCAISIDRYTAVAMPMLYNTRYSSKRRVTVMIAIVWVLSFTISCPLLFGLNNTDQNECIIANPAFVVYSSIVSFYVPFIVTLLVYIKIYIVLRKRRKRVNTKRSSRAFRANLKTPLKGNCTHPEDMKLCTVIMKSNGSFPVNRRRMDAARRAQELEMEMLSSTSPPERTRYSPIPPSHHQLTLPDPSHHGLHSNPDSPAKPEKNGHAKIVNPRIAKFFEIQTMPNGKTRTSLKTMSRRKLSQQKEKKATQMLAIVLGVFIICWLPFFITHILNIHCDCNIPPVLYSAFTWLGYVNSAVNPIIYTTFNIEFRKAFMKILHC
Assay: D2 receptor radioligand binding (3H-spiperone)
Conditions: Receptor Affinity Ki ± SEM D2, rat striatum, 3H-spiperone; mean ± SEM of three experiments
MEASURE NAME: Ki

{"COMPOUND": "CC1CC(=O)c2ccc(OCCCCN3CCC(c4noc5cc(F)ccc45)CC3)c(Cl)c2O1 (centres unmarked) [Compound 16b]", "MEASURE NAME": "Ki", "ASSAY VALUE": "21.4 nM"}
{"COMPOUND": "O=C1CCOc2cc(OCCCCN3CCC(c4noc5cc(F)ccc45)CC3)ccc21 [Compound 13a]", "MEASURE NAME": "Ki", "ASSAY VALUE": "22.5 nM"}
{"COMPOUND": "O=C1CC2(CCCC2)Oc2cc(OCCCN3CCC(c4noc5cc(F)ccc45)CC3)ccc21 [Compound 9c]", "MEASURE NAME": "Ki", "ASSAY VALUE": "18.9 nM"}
{"COMPOUND": "O=C1CC2(CCCCC2)Oc2cc(OCCCCN3CCC(c4nsc5ccccc45)CC3)ccc21 [Compound 9k]", "MEASURE NAME": "Ki", "ASSAY VALUE": "35.1 nM"}
{"COMPOUND": "CC1(C)CC(=O)c2ccc(OCCCCN3CCN(c4ncccn4)CC3)cc2O1 [Compound 6f]", "MEASURE NAME": "Ki", "ASSAY VALUE": "> 10000 nM"}
{"COMPOUND": "CC1(C)CC(=O)c2ccc(OCCCN3CCC(c4noc5cc(F)ccc45)CC3)cc2O1 [Compound 6l]", "MEASURE NAME": "Ki", "ASSAY VALUE": "18.6 nM"}
{"COMPOUND": "O=C1CC2(CCCCC2)Oc2cc(OCCCN3CCN(c4ccccc4C(F)(F)F)CC3)ccc21 [Compound 9f]", "MEASURE NAME": "Ki", "ASSAY VALUE": "915 nM"}
{"COMPOUND": "COc1ccccc1N1CCN(CCCCOc2ccc3c(c2)OC(C)(C)CC3=O)CC1 [Compound 6d]", "MEASURE NAME": "Ki", "ASSAY VALUE": "2350 nM"}

---

Biological target: 5-HT2A receptor (Rattus norvegicus)
Assay: 5-HT2A receptor radioligand binding (3H-ketanserin)
Settings: Receptor Affinity Ki ± SEM 5-HT2A, rat brain cortex, 3H-ketanserin; mean ± SEM of three experiments
Catalogue of Ki readings, one per entry.
MEASURE NAME: Ki (nM)

{"COMPOUND": "O=C1CC2(CCCC2)Oc2cc(OCCCCN3CCC(c4noc5cc(F)ccc45)CC3)ccc21 [Compound 9d]", "EXPERIMENTAL TARGET": "5-HT2A receptor (Rattus norvegicus)", "OUTPUT UNIT": "nM", "ASSAY VALUE": 8.5}
{"COMPOUND": "O=C1CCOc2cc(OCCCCN3CCC(c4noc5cc(F)ccc45)CC3)ccc21 [Compound 13a]", "EXPERIMENTAL TARGET": "5-HT2A receptor (Rattus norvegicus)", "OUTPUT UNIT": "nM", "ASSAY VALUE": 9.6}
{"COMPOUND": "COc1ccccc1N1CCN(CCCOc2ccc3c(c2)OC2(CCCCC2)CC3=O)CC1 [Compound 9e]", "EXPERIMENTAL TARGET": "5-HT2A receptor (Rattus norvegicus)", "OUTPUT UNIT": "nM", "ASSAY VALUE": 93.5}
{"COMPOUND": "CC1CC(=O)c2ccc(OCCCCN3CCC(c4noc5cc(F)ccc45)CC3)c(Cl)c2O1 (stereo not shown) [Compound 16b]", "EXPERIMENTAL TARGET": "5-HT2A receptor (Rattus norvegicus)", "OUTPUT UNIT": "nM", "ASSAY VALUE": 8.1}
{"COMPOUND": "CC1(C)CC(=O)c2ccc(OCCCCN3CCN(c4ccccn4)CC3)cc2O1 [Compound 6e]", "EXPERIMENTAL TARGET": "5-HT2A receptor (Rattus norvegicus)", "OUTPUT UNIT": "nM", "ASSAY VALUE": 722}
{"COMPOUND": "O=C1CC2(CCCCC2)Oc2cc(OCCCCN3CCN(c4cccc(Cl)c4Cl)CC3)ccc21 [Compound 9j]", "EXPERIMENTAL TARGET": "5-HT2A receptor (Rattus norvegicus)", "OUTPUT UNIT": "nM", "ASSAY VALUE": 35.8}
{"COMPOUND": "COc1ccccc1N1CCN(CCCCOc2ccc3c(c2)OC(C)(C)CC3=O)CC1 [Compound 6d]", "EXPERIMENTAL TARGET": "5-HT2A receptor (Rattus norvegicus)", "OUTPUT UNIT": "nM", "ASSAY VALUE": 86.8}
{"COMPOUND": "O=C1CC2(CCCCC2)Oc2cc(OCCCN3CCN(c4ccccc4C(F)(F)F)CC3)ccc21 [Compound 9f]", "EXPERIMENTAL TARGET": "5-HT2A receptor (Rattus norvegicus)", "OUTPUT UNIT": "nM", "ASSAY VALUE": 76.7}
{"COMPOUND": "CC1(C)CC(=O)c2ccc(OCCCCN3CCN(c4ccccc4F)CC3)cc2O1 [Compound 6b]", "EXPERIMENTAL TARGET": "5-HT2A receptor (Rattus norvegicus)", "OUTPUT UNIT": "nM", "ASSAY VALUE": 72.5}
{"COMPOUND": "CC1(C)CC(=O)c2ccc(OCCCCN3CCN(c4cccc5sccc45)CC3)cc2O1 [Compound 6h]", "EXPERIMENTAL TARGET": "5-HT2A receptor (Rattus norvegicus)", "OUTPUT UNIT": "nM", "ASSAY VALUE": 55.2}
{"COMPOUND": "CC1(C)CC(=O)c2ccc(OCCCCN3CCN(Cc4ccc5c(c4)OCO5)CC3)cc2O1 [Compound 6g]", "EXPERIMENTAL TARGET": "5-HT2A receptor (Rattus norvegicus)", "OUTPUT UNIT": "nM", "ASSAY VALUE": 380}
{"COMPOUND": "CC1(C)CC(=O)c2ccc(OCCCN3CCC(c4noc5cc(F)ccc45)CC3)cc2O1 [Compound 6l]", "EXPERIMENTAL TARGET": "5-HT2A receptor (Rattus norvegicus)", "OUTPUT UNIT": "nM", "ASSAY VALUE": 6.7}
{"COMPOUND": "COc1ccccc1N1CCN(CCCOc2ccc3c(c2)OC2(CCCC2)CC3=O)CC1 [Compound 9a]", "EXPERIMENTAL TARGET": "5-HT2A receptor (Rattus norvegicus)", "OUTPUT UNIT": "nM", "ASSAY VALUE": 72}
{"COMPOUND": "CC1(C)CC(=O)c2ccc(OCCCCN3CCN(c4cccc(C(F)(F)F)c4)CC3)cc2O1 [Compound 6c]", "EXPERIMENTAL TARGET": "5-HT2A receptor (Rattus norvegicus)", "OUTPUT UNIT": "nM", "ASSAY VALUE": 147}
{"COMPOUND": "O=C1CC2(CCCCC2)Oc2cc(OCCCN3CCC(c4noc5cc(F)ccc45)CC3)ccc21 [Compound 9g]", "EXPERIMENTAL TARGET": "5-HT2A receptor (Rattus norvegicus)", "OUTPUT UNIT": "nM", "ASSAY VALUE": 9.1}
{"COMPOUND": "O=C1CC2(CCCCC2)Oc2cc(OCCCCN3CCC(c4noc5cc(F)ccc45)CC3)ccc21 [Compound 9h]", "EXPERIMENTAL TARGET": "5-HT2A receptor (Rattus norvegicus)", "OUTPUT UNIT": "nM", "ASSAY VALUE": 7.3}
{"COMPOUND": "Cc1cc2c(cc1OCCCCN1CCC(c3noc4cc(F)ccc34)CC1)OCCC2=O [Compound 13c]", "EXPERIMENTAL TARGET": "5-HT2A receptor (Rattus norvegicus)", "OUTPUT UNIT": "nM", "ASSAY VALUE": 15.9}
{"COMPOUND": "CC1(C)CC(=O)c2ccc(OCCCCN3CCN(c4nsc5ccccc45)CC3)cc2O1 [Compound 6i]", "EXPERIMENTAL TARGET": "5-HT2A receptor (Rattus norvegicus)", "OUTPUT UNIT": "nM", "ASSAY VALUE": 19.5}
{"COMPOUND": "COc1ccccc1N1CCN(CCCCOc2ccc3c(c2)OC2(CCCC2)CC3=O)CC1 [Compound 9b]", "EXPERIMENTAL TARGET": "5-HT2A receptor (Rattus norvegicus)", "OUTPUT UNIT": "nM", "ASSAY VALUE": 61.7}
